Value source: patent US20220119450A1

- MEASUREMENT TARGET: T1, recombinant His-tagged tenascin-C C domain (TNC-C)
- T1 construct: 112 amino acids, expressed in E. coli from pET28a+ with N-terminal His-tag
- T1 chain: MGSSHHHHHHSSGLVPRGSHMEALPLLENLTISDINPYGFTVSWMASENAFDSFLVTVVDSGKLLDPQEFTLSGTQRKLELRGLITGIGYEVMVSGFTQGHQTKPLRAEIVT
- ASSAY SUMMARY: T7 peptide phage binding to recombinant TNC-C, fold over control heptaglycine phage
# Lookup of reported TNC-C binding (fold G7 control phage) keyed by entry
Return type: number; implicit unit fold.

| BINDER | TNC-C binding (fold G7 control phage) (fold) |
| --- | --- |
| AGVGRLRRAKLAAALE [TNC-C-selected peptide phage clone 1, AGVGRLRRAKLAAALE] | 3260 |

Which TNC-C binding (fold G7 control phage) reading was recorded for the binder CRGVLRRAKLAAALE [TNC-C-selected peptide phage clone 2, CRGVLRRAKLAAALE] ?
5960
